biological target: ABCG2 transporter (Homo sapiens); construct: ABCG2-overexpressing cell membranes; assay: vanadate-sensitive ATPase stimulation in ABCG2-overexpressing membranes; [3H]-mitoxantrone efflux inhibition in S1-M1-80 cells
Sequence (Q9UNQ0 whole entry): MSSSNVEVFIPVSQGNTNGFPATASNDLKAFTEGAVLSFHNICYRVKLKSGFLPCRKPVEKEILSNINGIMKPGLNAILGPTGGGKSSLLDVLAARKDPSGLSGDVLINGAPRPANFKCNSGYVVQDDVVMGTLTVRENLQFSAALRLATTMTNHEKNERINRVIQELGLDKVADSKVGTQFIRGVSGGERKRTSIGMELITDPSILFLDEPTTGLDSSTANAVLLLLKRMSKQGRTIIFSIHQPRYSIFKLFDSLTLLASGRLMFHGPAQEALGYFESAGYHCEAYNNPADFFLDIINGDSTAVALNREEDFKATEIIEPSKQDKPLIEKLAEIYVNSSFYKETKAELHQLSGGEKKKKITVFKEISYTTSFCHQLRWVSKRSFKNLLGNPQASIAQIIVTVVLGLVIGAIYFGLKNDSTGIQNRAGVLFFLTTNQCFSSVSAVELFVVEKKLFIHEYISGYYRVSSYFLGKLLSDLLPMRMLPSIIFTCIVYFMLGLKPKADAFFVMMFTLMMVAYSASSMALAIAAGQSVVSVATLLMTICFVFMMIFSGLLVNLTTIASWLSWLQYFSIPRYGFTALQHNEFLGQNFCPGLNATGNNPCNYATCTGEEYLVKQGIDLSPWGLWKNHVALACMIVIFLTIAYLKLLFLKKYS
test.readout: EC50
Please state the number and follow it with the unit.

Item: `CCCc1ccc(NC(=O)c2ccccc2NC(=O)Nc2cccc([N+](=O)[O-])c2)cc1` | System: ABCG2 transporter (Homo sapiens) | EC50: 2300 nM
